The following molecules are listed with their measured Bliss excess values.
Tested on: NCI-H2461 (Mesothelioma)
TEST_DESCRIPTION: Bliss excess, mean over the matrix (fraction); higher = more synergy;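 further: after 72 h of two-drug dosing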
Lab note: record just the number, no unit beside it.

# annotated cases, reported Bliss excess shown
MOLECULE | Bliss excess
COc1cc2ncnc(Nc3ccc(F)c(Cl)c3)c2cc1OCCCN1CCOCC1 [Gefitinib] + CC(C)n1c(=O)n(C)c2cnc3cc(F)c(-c4ccc(OCCCN5CCCCC5)nc4)cc3c21 [AZD1390] (first compound max 10 µM, 7x7, partner max 0.3 µM) | -0.0733
CC1(C)CCC(CN2CCN(c3ccc(C(=O)NS(=O)(=O)c4ccc(NCC5CCOCC5)c([N+](=O)[O-])c4)c(Oc4cnc5[nH]ccc5c4)c3)CC2)=C(c2ccc(Cl)cc2)C1 [Venetoclax] + Cc1cc2ncnn2cc1Nc1ncc2c(n1)n(C1CCOCC1)c(=O)n2C [AZD7648] (first compound max 1 µM, 7x7, partner max 10 µM) | -0.0954
C[C@@H]1COCCN1c1cc(C2([S@](C)(=N)=O)CC2)nc(-c2ccnc3[nH]ccc23)n1 [AZD6738] + O=C(c1cc(Cc2n[nH]c(=O)c3ccccc23)ccc1F)N1CCN(C(=O)C2CC2)CC1 [Olaparib] (first compound max 10 µM, 7x7, partner max 10 µM) | -0.0214

Query string: Give NCI-H2461 (Mesothelioma) Bliss excess for the following molecule: Cc1cc2ncnn2cc1Nc1ncc2c(n1)n(C1CCOCC1)c(=O)n2C [AZD7648] + C[C@@H]1COCCN1C2=NC(=NC(=C2)C3(CC3)[S@](=N)(=O)C)C4=C5C=CNC5=NC=C4 [AZD6738] (first compound max 10 µM, 7x7, partner max 10 µM)
Result string: -0.0188

====

Test system: KARPAS-231 (B-Cell Non-Hodgkin's Lymphoma)
TEST_DESCRIPTION: Bliss excess, mean over the matrix (fraction); higher = more synergy
# Bliss excess listing for each entry below
Number, no unit, nothing else.

COMPOUND | EXPERIMENTAL_TARGET | Bliss excess
Cc1c2c(nn1C)CSCc1cc(n(C)n1)CSc1cc(c3ccccc3c1)OCCCc1c(C(=O)O)n(C)c3c-2c(Cl)ccc13 [AZD5991] + CC1(C)CCC(CN2CCN(c3ccc(C(=O)NS(=O)(=O)c4ccc(NCC5CCOCC5)c([N+](=O)[O-])c4)c(Oc4cnc5[nH]ccc5c4)c3)CC2)=C(c2ccc(Cl)cc2)C1 [Venetoclax] (first compound max 1 µM, 7x7, partner max 1 µM) | KARPAS-231 (B-Cell Non-Hodgkin's Lymphoma) | -0.0232
CC(=O)Nc1cccc(-n2c(=O)n(C3CC3)c(=O)c3c(Nc4ccc(I)cc4F)n(C)c(=O)c(C)c32)c1 [Trametinib] + Cc1nc(-c2cn3c(n2)-c2ccc(-c4cnn(C(C)(C)C(N)=O)c4)cc2OCC3)n(C(C)C)n1 [Taselisib] (first compound max 1 µM, 7x7, partner max 10 µM) | KARPAS-231 (B-Cell Non-Hodgkin's Lymphoma) | -0.0605

With those in mind, consider the next compound.
Query string: Report measured Bliss excess; entry is CN(CCO)CC[C@H](CSc1ccccc1)Nc1ccc(S(=O)(=O)NC(=O)c2ccc(N3CCC([C@@H](O)c4ccccc4-c4ccc(Cl)cc4)CC3)cc2)cc1S(=O)(=O)C(F)(F)F [AZD4320] + C[C@@H](Nc1cc(F)cc(F)c1)c1cc(C(=O)N(C)C)cc2c(=O)cc(N3CCOCC3)oc12 [AZD8186] (first compound max 1 µM, 7x7, partner max 3 µM)
Result string: 0.0269
